TARGET_OR_TEST_SYSTEM: GC-B (Rattus norvegicus)
Sequence (P16067 17-1047): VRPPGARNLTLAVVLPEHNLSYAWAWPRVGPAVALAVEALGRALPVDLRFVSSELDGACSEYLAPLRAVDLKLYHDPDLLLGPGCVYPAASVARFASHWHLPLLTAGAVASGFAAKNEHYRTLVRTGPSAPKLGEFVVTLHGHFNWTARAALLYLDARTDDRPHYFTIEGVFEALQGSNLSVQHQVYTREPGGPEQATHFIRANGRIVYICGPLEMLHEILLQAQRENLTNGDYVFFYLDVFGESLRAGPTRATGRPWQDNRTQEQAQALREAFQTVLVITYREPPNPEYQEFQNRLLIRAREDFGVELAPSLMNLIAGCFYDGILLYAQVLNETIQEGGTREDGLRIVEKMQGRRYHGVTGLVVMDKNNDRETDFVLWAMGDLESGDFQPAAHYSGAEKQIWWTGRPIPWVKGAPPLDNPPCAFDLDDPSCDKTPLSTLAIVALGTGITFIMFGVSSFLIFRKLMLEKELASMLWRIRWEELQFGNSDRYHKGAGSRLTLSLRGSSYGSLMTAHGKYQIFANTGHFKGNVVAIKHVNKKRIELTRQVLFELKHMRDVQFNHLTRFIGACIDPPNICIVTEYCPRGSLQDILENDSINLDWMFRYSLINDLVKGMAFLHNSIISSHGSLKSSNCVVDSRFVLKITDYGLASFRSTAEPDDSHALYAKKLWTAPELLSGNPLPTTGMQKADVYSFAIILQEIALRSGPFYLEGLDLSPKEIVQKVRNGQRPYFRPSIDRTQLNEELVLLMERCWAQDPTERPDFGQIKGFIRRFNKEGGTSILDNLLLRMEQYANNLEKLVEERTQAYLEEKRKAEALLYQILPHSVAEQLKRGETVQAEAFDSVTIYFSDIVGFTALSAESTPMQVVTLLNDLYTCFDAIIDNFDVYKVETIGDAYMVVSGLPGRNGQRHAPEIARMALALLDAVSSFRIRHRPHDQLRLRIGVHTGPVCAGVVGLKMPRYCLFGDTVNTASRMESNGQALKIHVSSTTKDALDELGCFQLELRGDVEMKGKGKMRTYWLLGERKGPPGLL
Sequence (P55207 105-126 partner limits assumed): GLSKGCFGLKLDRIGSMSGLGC
ASSAY_PROCEDURE: GC assay
Assay type: biochemical
APPLIED_CONDITIONS: EC50 for activation, NP-stimulated, 5.4 mM GTP
pEC50: −log10 of the molar value.

MOLECULE: Nc1ncnc2c1ncn2[C@@H]1O[C@H](COP(=O)(O)OP(=O)(O)OP(=O)(O)O)[C@@H](O)[C@H]1O [ATP, adenosine triphosphate]
pEC50: 4.72

====

TARGET_OR_TEST_SYSTEM: GC-B (Rattus norvegicus)
ASSAY_PROCEDURE: GC assay
Assay type: biochemical
APPLIED_CONDITIONS: EC50 for activation, NP-stimulated, 0.9 mM GTP
MEASURED_PROPERTY: EC50 (µM)

COMPOUND: Nc1ncnc2c1ncn2[C@@H]1O[C@H](COP(=O)(O)OP(=O)(O)OP(=O)(O)O)[C@@H](O)[C@H]1O [ATP, adenosine triphosphate]
TARGET_OR_TEST_SYSTEM: GC-B (Rattus norvegicus)
MEASURED_PROPERTY: EC50
EXPERIMENTAL_RESULT: 16

// provenance: paper PMC4411398
